# Test system: SK-MEL-28
# experiment_notes: NCI tumour cell line growth inhibition, 48 h
Active and inactive are the calls of the source. No stated cut-off is given here; in the data, active = GI50 up to about 1.1 µM and inactive = higher.
I'd be grateful if you could share measured GI50 for these entries.

INSERT INTO measurements (compound, endpoint, result) VALUES
  ('COP(=O)(OC)C(NC(=O)C(F)(F)F)(c1ccccc1)C(F)(F)F (centres undefined)', 'GI50', '> 100 µM (inactive)'),
  ('CCCCN(CCCC)C(=Nc1ccccc1)N(CCCC)CCCC', 'GI50', '3.1 µM (inactive)'),
  ('CC1(C)C(=O)/C=C\C(=O)C(C)(C)C(=O)/C=C\C(=O)C(C)(C)C2=CC=C(O2)C(C)(C)C(=O)/C=C\C1=O', 'GI50', '4.99 µM (inactive)');

# return GI50 for each item in the list
1. CN(CCNC(=O)c1n[nH]c2c1Cc1ccccc1-2)CCNC(=O)c1n[nH]c2c1Cc1ccccc1-2
2. CCOC(=O)C(C(CC(=O)OC)NC(=O)OCc1ccccc1)C1(C)OCCO1 (centres undefined)
3. c1ccc2c(c1)N=C(c1cccc3ccccc13)CC(c1cccc3ccccc13)S2 (centres undefined)
4. COC(=O)/C=C/c1c(CC=C(C)C)ncn1C
5. Cc1ccc(C(=O)CC(O)(C(F)(F)F)C(F)(F)F)cc1[N+](=O)[O-]
6. Cc1ccc(/C=N\NC(=O)c2ccncc2)s1
7. COC1O[C@@H]2COC(C)(C)O[C@@H]2C(=O)N1Nc1ccc([N+](=O)[O-])cc1 (some centres undefined)

1: 18.3 µM (inactive); 2: > 100 µM (inactive); 3: 7.36 µM (inactive); 4: > 49.5 µM (inactive); 5: 8.15 µM (inactive); 6: > 100 µM (inactive); 7: > 100 µM (inactive)

# return GI50 for each item in the list
1. CCCCCCCCCCCCCCCCCCNc1ccn(C2OC(COP(=O)(O)OC3CC(n4cc(F)c(=O)[nH]c4=O)OC3COP(=O)(O)OCC3OC(n4ccc(N)nc4=O)C(O)C3O)C(O)C2O)c(=O)n1 (centres undefined)
2. COc1cc(C2SCC(=O)N2c2ccc(Oc3ccc(Cl)cc3)c(Cl)c2)cc(OC)c1OC (centres undefined)
3. O=S(=O)(/C=C/C=C/[S+]([O-])c1ccccc1)c1ccccc1 (centres undefined)
4. O=C(CCC(=O)CC(O)(C(F)(F)F)C(F)(F)F)CC(O)(C(F)(F)F)C(F)(F)F
5. C=C1C(=O)CC2C1CC(=O)/C(C)=C/CCC(C)(O)C2O (centres undefined)

1: 24.7 µM (inactive); 2: 16.6 µM (inactive); 3: 1.98 µM (inactive); 4: > 100 µM (inactive); 5: 14.9 µM (inactive)

# return GI50 for each item in the list
1. CCOC(=O)C12CN(C34CC5CC(CC(C5)C3)C4)CC(C(=O)OCC)(C1=O)C(c1ccccc1)OC2c1ccccc1 (centres undefined)
2. CC(=O)NC1=C(Nc2ccc(C)cc2)C(=O)c2ccccc2C1=O
3. CC(=O)OCC1OC(n2c3c(cc(C#N)c2=O)CCCCCC3)C(OC(C)=O)C(OC(C)=O)C1OC(C)=O (centres undefined)
4. O=C(O)CC(NC(=O)/C(=C/c1ccccc1O)NC(=O)c1ccccc1)C(=O)O (centres undefined)

1. > 100 µM (inactive)
2. 17.6 µM (inactive)
3. > 100 µM (inactive)
4. > 100 µM (inactive)
